Here, each record is paired with measured neutralization IC50 data.
- EXPERIMENTAL SYSTEM: HIV-1 Env of CNE3 (HIV-1)
- PROCEDURE TEXT: cell-based or functional assay
MEASURED ENDPOINT: neutralization IC50

>>> result("CAP256-VRC26.03 (antibody, V domains shown) VH: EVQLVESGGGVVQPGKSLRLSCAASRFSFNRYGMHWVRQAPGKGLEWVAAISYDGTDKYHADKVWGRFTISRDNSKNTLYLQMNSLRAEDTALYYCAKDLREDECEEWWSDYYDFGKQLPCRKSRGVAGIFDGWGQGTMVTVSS VL: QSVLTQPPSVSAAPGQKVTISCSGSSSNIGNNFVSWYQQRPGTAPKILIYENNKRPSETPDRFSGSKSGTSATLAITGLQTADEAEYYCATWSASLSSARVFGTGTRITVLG")
"> 50 µg/mL"
>>> result("CAP256-VRC26.05 (antibody, V domains shown) VH: EVQLVESGGGVVQPGRSLRLSCAASHFSLSSYGMHWVRQAPGKGLEWVTGISFAGTKTYYGDSVRGRFTVSRDISKNTLFLQMNSLRPDDTAMYYCARDQRYYECEEWASDYYDFGREQPCLDPRGVVGIFDLWGQGTMVTVSS VL: QSALTQPPSVSAAPGQKVTISCSGNIGNNYVSWYQQVPGTAPKLLIYENNKRPSGIPDRFSGSKSGTSATLVITGLQTGDEADFYCGTWGGSLRTGGVLGTGTRVTVLG")
"> 50 µg/mL"
